src = patent US12539292B2

Molecular target: BRM (Homo sapiens, UniProt P51531)
Construct: In-Cell Western Screen of BRM Degradation in SW1573 Cells; endogenous in cells; host or cells: SW1573
Sequence (P51531 whole entry): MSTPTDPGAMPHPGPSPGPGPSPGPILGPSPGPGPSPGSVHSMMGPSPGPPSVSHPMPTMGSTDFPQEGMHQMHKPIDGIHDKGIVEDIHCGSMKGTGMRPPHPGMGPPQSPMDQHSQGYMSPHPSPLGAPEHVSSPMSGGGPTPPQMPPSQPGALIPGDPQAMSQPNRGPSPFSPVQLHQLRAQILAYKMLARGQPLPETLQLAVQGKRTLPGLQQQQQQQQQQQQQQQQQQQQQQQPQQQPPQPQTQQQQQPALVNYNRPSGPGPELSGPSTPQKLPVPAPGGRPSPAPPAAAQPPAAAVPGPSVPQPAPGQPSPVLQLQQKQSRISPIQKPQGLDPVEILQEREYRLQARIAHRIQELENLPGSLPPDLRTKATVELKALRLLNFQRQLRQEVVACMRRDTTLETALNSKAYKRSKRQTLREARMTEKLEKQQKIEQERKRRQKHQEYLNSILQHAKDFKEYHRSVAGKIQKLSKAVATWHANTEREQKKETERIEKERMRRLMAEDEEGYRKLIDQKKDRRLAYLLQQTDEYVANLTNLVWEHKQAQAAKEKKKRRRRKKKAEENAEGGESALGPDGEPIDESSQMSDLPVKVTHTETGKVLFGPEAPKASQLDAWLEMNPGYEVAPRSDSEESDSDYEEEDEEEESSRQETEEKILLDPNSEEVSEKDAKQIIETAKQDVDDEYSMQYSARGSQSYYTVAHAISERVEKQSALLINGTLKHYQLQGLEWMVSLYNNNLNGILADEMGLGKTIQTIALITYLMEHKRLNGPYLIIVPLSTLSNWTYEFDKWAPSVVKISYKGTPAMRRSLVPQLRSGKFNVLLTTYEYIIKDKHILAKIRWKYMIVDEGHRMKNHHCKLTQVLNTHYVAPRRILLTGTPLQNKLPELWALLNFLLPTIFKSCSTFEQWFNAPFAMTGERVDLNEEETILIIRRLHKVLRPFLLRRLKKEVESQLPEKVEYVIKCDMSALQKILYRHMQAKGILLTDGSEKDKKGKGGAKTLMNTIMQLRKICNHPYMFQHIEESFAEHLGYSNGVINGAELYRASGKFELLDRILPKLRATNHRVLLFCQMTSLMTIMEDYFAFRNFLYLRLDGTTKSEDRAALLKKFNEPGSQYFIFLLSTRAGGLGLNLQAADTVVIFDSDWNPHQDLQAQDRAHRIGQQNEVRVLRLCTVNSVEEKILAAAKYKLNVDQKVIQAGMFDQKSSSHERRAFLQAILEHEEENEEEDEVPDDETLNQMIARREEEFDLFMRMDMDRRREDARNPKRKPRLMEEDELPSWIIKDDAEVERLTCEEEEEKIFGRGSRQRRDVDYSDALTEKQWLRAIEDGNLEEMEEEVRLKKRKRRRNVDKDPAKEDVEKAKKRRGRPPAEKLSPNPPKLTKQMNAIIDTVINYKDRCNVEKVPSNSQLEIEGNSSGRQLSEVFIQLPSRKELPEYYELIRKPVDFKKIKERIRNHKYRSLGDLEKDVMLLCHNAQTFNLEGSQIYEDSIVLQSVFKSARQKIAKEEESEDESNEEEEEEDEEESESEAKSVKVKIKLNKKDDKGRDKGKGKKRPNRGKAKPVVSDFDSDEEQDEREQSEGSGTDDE
Assay: In-cell Western screen of BRM degradation in SW1573 cells (Dmax and DC50)
Assay type: cell-based
Details: BRM degradation, SW1573 cells; when tested at the top concentration of between 0.3 and 10 μM; read-out: Dmax (%) (% degraded)

# molecule, Dmax
data = [
    ("Cc1ncsc1-c1ccc([C@H](CO)NC(=O)[C@@H]2C[C@@H](O)CN2C(=O)[C@@H](c2cc(OCCN3CCN(CCOc4cc(N5C6CCC5CN(c5cc(-c7ccccc7O)nnc5N)C6)ccn4)CC3)no2)C(C)C)cc1 [compound 100]", "> 75%"),
    ("Cc1ncsc1-c1ccc([C@@H](NC(=O)[C@@H]2C[C@@H](O)CN2C(=O)[C@@H](c2cc(OCCN3CCN(CCOc4cc(N5C6CCC5CN(c5cc(-c7ccccc7O)nnc5N)C6)ccn4)CC3)no2)C(C)C)C(=O)N(C)C)cc1 [compound 131]", "> 75%"),
    ("Cc1ncsc1-c1ccc([C@H](C)NC(=O)[C@@H]2C[C@@H](O)CN2C(=O)[C@@H](c2cc(OCCN3CCN(Cc4ccc(C(C)n5cc(-c6cc(-c7ccccc7O)nnc6N)cn5)cc4)CC3)no2)C(C)C)cc1 (stereo partly drawn) [compound 83]", "> 75%"),
    ("Cc1ncsc1-c1ccc(CNC(=O)[C@@H]2C[C@@H](O)CN2C(=O)[C@@H](c2cc(OCCN3CCN(CCOc4cc(N5C6CCC5CN(c5cc(-c7ccccc7O)nnc5N)C6)ccn4)CC3)no2)C(C)C)cc1 [compound 42]", "> 75%"),
    ("Cc1ncsc1-c1ccc(CNC(=O)[C@@H]2C[C@@H](O)CN2C(=O)[C@H](c2cc(OCCOCCOCCn3cc(-c4cc(-c5ccccc5O)nnc4N)cn3)no2)C(C)C)cc1 [compound 14]", "< 50%"),
    ("Cc1ncsc1-c1ccc([C@H](C)NC(=O)[C@@H]2C[C@@H](O)CN2C(=O)[C@@H](c2cc(OCCOc3ccc(C(C)n4cc(-c5cc(-c6ccccc6O)nnc5N)cn4)cc3)no2)C(C)C)cc1 (stereo partly drawn) [compound 81]", "> 75%"),
    ("Cc1ncsc1-c1ccc([C@H](C)NC(=O)[C@@H]2C[C@@H](O)CN2C(=O)[C@@H](c2cc(CCCOCCOCCOCCn3cc(-c4cc(-c5ccccc5O)nnc4N)cn3)no2)C(C)C)cc1 [compound 110]", "> 75%"),
    ("Cc1ncsc1-c1ccc([C@H](CN)NC(=O)[C@@H]2C[C@@H](O)CN2C(=O)[C@@H](c2cc(OCCN3CCN(CCOc4cc(N5C6CCC5CN(c5cc(-c7ccccc7O)nnc5N)C6)ccn4)CC3)no2)C(C)C)cc1 [compound 103]", "> 75%"),
    ("Cc1ncsc1-c1ccc(CNC(=O)[C@@H]2C[C@@H](O)CN2C(=O)[C@H](C(C)C)N2Cc3ccccc3C2=O)c(OCCOCCOCCn2cc(-c3cc(-c4ccccc4O)nnc3N)cn2)c1 [compound 21]", "< 50%"),
]
